target.system: Cytochrome P450 2C9 (Homo sapiens, UniProt P11712)
Sequence (P11712 whole entry): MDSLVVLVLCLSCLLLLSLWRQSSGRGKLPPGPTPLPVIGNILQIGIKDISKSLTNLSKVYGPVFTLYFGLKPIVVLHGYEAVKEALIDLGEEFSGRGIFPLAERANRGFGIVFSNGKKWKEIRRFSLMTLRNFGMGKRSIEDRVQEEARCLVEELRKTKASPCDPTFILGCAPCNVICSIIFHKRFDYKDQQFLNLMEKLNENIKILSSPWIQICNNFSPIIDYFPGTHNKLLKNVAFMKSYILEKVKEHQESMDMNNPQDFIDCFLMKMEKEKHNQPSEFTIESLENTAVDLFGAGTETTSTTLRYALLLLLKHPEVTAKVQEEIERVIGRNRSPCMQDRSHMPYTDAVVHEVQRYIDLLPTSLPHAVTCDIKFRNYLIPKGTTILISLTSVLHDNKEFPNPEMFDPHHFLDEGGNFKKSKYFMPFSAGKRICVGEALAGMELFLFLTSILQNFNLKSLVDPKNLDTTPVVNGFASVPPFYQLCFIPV
measured.endpoint: AC50

compound	measured.endpoint	obs.value
CC(C)OC(=O)/C(=C\c1ccc2c(c1)c1ccccc1n2C)NC(=O)c1ccccc1	AC50	6.31 µM (inconclusive)
COc1ccc(/C(O)=C(\C#N)c2nc3ccccc3n2C)cc1OC	AC50	0.251 µM (inconclusive)
CCOc1cc2[nH]c(=O)n(CCC(=O)NCc3ccc(OC)cc3)c(=O)c2cc1OCC	AC50	2 µM (inconclusive)
Cc1cc2cccc(C)c2nc1SCC(=O)N(C)c1nc(-c2ccccc2)cs1	AC50	2.82 µM (inconclusive)
CC(=O)O[C@H]1CC[C@@]2(C)C(=CC[C@@H]3[C@H]2CC[C@]2(C)C(=O)CC[C@H]32)C1	AC50	15.8 µM (inconclusive)

*Q* Param readout= AC50; system= Cytochrome P450 2C9 (Homo sapiens, UniProt P11712); entry= CC(=O)Nc1ccc(S(=O)(=O)NC(CC(=O)NCCC2=CCCCC2)C(C)C)cc1 (stereo not given) ; returns value.
*A* 8.91 µM (inconclusive)

*Q* Fill in the recorded AC50 for this compound, with Cytochrome P450 2C9 (Homo sapiens, UniProt P11712) as test system: CCCCC#Cc1nc(N)c2ncn([C@@H]3O[C@@H](C(=O)NCC)[C@H](O)[C@@H]3O)c2n1
*A* 25.1 µM (inconclusive)

*Q* // lookup AC50 | system=Cytochrome P450 2C9 (Homo sapiens, UniProt P11712) | key= CCCCCC(=O)Nc1cc2nc(O)cc(COC)c2cc1C
*A* 10 µM (inconclusive)

*Q* Provide value of AC50 for this record tested with Cytochrome P450 2C9 (Homo sapiens, UniProt P11712): CC12CCC(C(=O)Nc3cccc4ccccc34)(C1Br)C2(C)C (stereo not given)
*A* 2.51 µM (inconclusive)

*Q* State its AC50 on Cytochrome P450 2C9 (Homo sapiens, UniProt P11712): COc1ccc(CNC(=O)[C@H]2C[C@@H]2[C@H](NP(=O)(c2ccccc2)c2ccccc2)c2ccccc2)cc1OC
*A* 25.1 µM (inconclusive)

====

target.system: Paired box protein Pax-8 (Homo sapiens, UniProt Q06710)
experiment.description: inhibitors of PAX8-driven TPO luciferase reporter, dose response, RMG-I cells, cherry-pick (AID 687027);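 note: luciferase reporter driven by Pax8 target thyroperoxidase promoter measured by SteadyGlo luminescence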
Format: functional, cell-based
Activity calls are given as the source filed them.
measured.endpoint: AC50

# example entries with known answers
compound	measured.endpoint	obs.value
C[C@@H]1CN([C@H](C)CO)C(=O)c2cc(NS(=O)(=O)c3ccc(F)cc3)ccc2O[C@@H]1CN(C)Cc1ccc(C(F)(F)F)cc1	AC50	22.2 µM (active)
C[C@@H]1CN([C@H](C)CO)C(=O)c2cc(NS(=O)(=O)c3ccc(Cl)cc3)ccc2O[C@@H](C)CCCCO[C@H]1CN(C)S(=O)(=O)c1ccc(Cl)cc1	AC50	4.76 µM (active)
COc1cccc(-c2ccc3c(c2)[C@H]2[C@H](CCN2C(=O)NC2CCCCC2)[C@@H](CO)N3C)c1	AC50	10.6 µM (active)
CC1CCN(CCc2nc3cc(NS(=O)(=O)c4ccccc4)ccc3n2C)CC1	AC50	12.1 µM (active)
COc1ccc(CCN2C(=O)CSC2=S)cc1OC	AC50	7.01 µM (active)
C[C@H]1CN([C@@H](C)CO)S(=O)(=O)c2ccc(C#Cc3ccc(F)cc3)cc2O[C@@H]1CN(C)C(=O)NC1CCCCC1	AC50	6.32 µM (active)

*Q* Form field: reported AC50 of C=C1C(C)C2C(Cc3ccccc3)NC(=O)C23OC(=O)/C=C/C(O)CCCC(C)C/C=C/C3C1O (configuration not stated)
*A* 3.15 µM (active)

====

target.system: Fatty acid synthase (Homo sapiens)
Sequence (P49327 whole entry, the tested form may be a part): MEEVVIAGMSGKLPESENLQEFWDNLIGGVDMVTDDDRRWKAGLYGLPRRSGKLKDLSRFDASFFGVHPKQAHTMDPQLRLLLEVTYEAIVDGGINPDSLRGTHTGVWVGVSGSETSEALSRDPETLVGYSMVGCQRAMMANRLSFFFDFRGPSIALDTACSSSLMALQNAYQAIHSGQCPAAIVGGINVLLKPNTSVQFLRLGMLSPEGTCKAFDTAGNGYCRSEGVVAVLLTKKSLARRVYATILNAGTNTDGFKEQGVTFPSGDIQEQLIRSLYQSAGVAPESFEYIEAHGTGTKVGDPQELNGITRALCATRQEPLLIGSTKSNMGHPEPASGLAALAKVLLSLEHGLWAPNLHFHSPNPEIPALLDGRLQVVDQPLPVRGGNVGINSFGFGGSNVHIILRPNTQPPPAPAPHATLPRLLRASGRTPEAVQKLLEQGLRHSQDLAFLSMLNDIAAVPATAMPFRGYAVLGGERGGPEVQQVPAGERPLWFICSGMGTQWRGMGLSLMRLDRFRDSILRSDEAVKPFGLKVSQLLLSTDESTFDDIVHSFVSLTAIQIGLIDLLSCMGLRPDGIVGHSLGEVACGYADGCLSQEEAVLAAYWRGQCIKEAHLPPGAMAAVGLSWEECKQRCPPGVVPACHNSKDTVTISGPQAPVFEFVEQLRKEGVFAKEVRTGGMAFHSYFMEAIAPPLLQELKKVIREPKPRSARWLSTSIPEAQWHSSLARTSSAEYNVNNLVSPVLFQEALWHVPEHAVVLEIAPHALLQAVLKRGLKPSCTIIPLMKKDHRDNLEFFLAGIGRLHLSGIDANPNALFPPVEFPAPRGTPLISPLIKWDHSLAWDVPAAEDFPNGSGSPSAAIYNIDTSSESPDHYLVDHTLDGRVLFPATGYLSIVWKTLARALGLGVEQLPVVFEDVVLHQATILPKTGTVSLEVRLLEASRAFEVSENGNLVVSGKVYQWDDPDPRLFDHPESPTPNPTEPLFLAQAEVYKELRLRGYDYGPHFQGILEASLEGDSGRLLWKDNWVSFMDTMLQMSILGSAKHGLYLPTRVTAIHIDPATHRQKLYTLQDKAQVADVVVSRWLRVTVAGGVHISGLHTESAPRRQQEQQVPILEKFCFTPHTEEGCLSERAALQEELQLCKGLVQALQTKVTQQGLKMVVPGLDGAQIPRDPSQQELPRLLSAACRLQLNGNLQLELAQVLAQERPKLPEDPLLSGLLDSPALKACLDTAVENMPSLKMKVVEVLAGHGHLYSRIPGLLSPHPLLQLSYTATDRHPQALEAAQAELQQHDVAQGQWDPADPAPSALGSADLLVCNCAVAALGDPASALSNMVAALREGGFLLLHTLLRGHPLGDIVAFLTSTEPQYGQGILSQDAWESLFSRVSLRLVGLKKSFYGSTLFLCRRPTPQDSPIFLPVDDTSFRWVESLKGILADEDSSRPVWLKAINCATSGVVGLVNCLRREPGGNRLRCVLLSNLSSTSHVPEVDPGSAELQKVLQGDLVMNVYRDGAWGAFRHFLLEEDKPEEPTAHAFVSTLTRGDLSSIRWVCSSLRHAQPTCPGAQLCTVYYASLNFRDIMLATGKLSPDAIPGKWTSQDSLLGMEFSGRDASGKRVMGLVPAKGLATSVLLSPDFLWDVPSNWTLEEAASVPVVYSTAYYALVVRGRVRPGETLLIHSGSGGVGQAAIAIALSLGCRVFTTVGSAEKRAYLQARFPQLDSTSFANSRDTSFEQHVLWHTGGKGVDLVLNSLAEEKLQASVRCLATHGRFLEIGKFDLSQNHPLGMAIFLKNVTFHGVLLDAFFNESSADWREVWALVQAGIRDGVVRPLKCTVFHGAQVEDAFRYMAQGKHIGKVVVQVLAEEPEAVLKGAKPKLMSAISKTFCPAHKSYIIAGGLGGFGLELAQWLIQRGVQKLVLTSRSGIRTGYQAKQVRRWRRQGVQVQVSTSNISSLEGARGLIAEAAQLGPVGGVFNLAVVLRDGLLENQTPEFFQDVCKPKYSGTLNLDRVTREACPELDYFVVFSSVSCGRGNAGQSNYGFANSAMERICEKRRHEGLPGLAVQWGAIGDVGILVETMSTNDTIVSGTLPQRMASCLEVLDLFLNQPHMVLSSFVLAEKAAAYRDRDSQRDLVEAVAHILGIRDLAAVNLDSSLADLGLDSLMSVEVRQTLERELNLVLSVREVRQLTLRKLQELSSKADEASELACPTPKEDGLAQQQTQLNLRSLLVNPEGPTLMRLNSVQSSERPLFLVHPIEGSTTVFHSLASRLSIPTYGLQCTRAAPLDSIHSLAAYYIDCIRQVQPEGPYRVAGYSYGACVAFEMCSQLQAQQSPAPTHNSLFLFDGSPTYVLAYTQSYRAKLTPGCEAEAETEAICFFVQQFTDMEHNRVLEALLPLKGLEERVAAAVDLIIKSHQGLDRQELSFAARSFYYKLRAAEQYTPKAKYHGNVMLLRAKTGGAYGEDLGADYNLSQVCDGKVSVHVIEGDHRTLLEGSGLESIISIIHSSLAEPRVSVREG
experiment.description: FAS thioesterase domain inhibitors, dose response, biochemical, endpoint fluorescence intensity, uHTS hits (AID 624327);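 note: fluorescence from hydrolysis of an O-methyl fluorescein acyl ester substrate by the enzyme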
Format: functional
The source made the active and inactive calls.
measured.endpoint: IC50

Recorded IC50, per entry:
molecule	IC50
N#CC1(NC(=O)COC(=O)c2cc([N+](=O)[O-])ccc2N2CCCC2)CCCCC1	7.64 µM (active)
COc1ccc(C(c2nnnn2-c2c(C)cccc2C)N2CCC(n3c(O)nc4ccccc43)CC2)cc1 (stereo not drawn)	16.5 µM (active)

Here's the next entry for you.
*Q* Look up IC50: CC1CCCN(S(=O)(=O)c2ccc(NC(=O)Cc3ccc(S(=O)(=O)N4CCOCC4)s3)cc2)C1 (stereo not drawn)
*A* 7.85 µM (active)

====

Entries below carry reported IC50 on UniProtKB P04406.

Some solved entries appear below for comparison.
smi	measured.endpoint	obs.value
O=C1C(Cl)=C(N2CCOCC2)C(=O)N1c1ccc(Cl)nc1	IC50	> 100 µM (not active)
O=C1c2ccccc2C(=O)N1c1nc(-c2cccnc2)n[nH]1	IC50	> 100 µM (not active)

The record that follows has no IC50 shown yet.
*Q* So what IC50 did Cc1c(CCO)c(O)oc2nnc(-c3ccccc3)c1-2 get with UniProtKB P04406?
*A* > 100 µM (not active)

====

target.system: Heat shock factor protein 1 (Mus musculus, UniProt P38532)
experiment.description: inhibition of MG132-induced HSE-luciferase signal, confirmation, cell-based, NIH3T3, luminescence, dose retest (AID 2382);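 note: NIH3T3 fibroblasts with HSF1-driven luciferase reporter stressed by proteasome inhibitor MG132; luminescence from HSF1-driven luciferase expression after 8 hours of MG132 stress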
Assay type: functional
Active and inactive are the calls of the source.
EC50 values, listed per item

Solved cases (3 shown):
molecule	target.system	EC50
COc1ccc(/C=C/C(=O)Nc2ccccc2C(=O)NCC(c2ccc(OC)cc2)N(C)C)cc1 (centres undefined)	Heat shock factor protein 1 (Mus musculus, UniProt P38532)	> 195 µM (not active)
COc1ccc(OC)c(C(=O)c2ccc(C(=O)O)cc2)c1	Heat shock factor protein 1 (Mus musculus, UniProt P38532)	> 195 µM (not active)
CCOc1cc(/C=N/NC(=O)CN(CCc2ccccc2)S(=O)(=O)c2ccc(NC(C)=O)cc2)ccc1O	Heat shock factor protein 1 (Mus musculus, UniProt P38532)	> 195 µM (not active)

Now, please, on to the next molecule.
*Q* Recorded EC50 of COc1ccc(-n2ncc3c(NCCCN4CCOCC4)ncnc32)cc1 , please.
*A* 1.52 µM (active)

====

target.system: UniProtKB Q9XUB2
Sequence (Q9XUB2 whole entry): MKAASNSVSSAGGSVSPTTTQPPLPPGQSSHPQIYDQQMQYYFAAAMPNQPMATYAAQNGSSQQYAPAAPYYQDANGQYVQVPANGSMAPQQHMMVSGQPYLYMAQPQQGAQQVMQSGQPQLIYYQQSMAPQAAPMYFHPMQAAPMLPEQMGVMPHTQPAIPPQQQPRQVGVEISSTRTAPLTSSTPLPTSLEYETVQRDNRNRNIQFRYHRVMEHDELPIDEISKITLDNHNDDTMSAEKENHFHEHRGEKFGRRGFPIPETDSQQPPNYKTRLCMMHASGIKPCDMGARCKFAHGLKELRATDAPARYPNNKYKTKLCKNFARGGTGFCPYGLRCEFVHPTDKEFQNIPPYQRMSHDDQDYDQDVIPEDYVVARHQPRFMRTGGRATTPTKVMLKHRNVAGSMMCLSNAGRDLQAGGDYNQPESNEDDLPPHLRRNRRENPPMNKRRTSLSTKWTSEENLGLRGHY
experiment.description: MEX-5/TCR-2 RNA interaction inhibitors, dose response, biochemical, C. elegans, fluorescence polarization (AID 1960)
Active and inactive are the calls of the source.
measured.endpoint: EC50

compound	EC50
CCc1ccc(N2C(=O)NC(=O)/C(=C\c3cc(C)n(-c4cc(C(=O)O)cc(C(=O)O)c4)c3C)C2=O)cc1	> 300 µM (not active)

*Q* Entry under review: N#CC1=C(N)OC2=C(C(=O)CC(c3ccccc3)C2)C1c1ccc2c(c1)OCO2 (configuration not stated) . Reported EC50?
*A* > 300 µM (not active)

*Q* What value of EC50 has been reported for the following compound? Cc1ccc(/N=C/c2nc(-c3ccc(C)cc3)oc2O)cc1
*A* 68.7 µM (active)

*Q* Looking for the measured EC50 of CC(C)C1Nc2ccc(S(N)(=O)=O)cc2C2C=CCC21 (configuration not stated) , can you help?
*A* 30.4 µM (active)

*Q* Which EC50 reading was recorded for the compound CN(C)S(=O)(=O)c1cccc(NC(=S)N/N=C/c2ccc(O)c(O)c2O)c1 ?
*A* 3.48 µM (active)

*Q* Can you look up the measured EC50 of O=C(O)C1Nc2c(C(F)(F)F)ccc(Cl)c2C2C=CCC12 (configuration not stated) for me?
*A* 61.5 µM (active)

*Q* Query: EC50; subject: COc1ccc(/C=C/c2ccc3c(Br)ccc(O)c3n2)cc1
*A* > 300 µM (not active)

====

target.system: UniProt P08659
Sequence (P08659 whole entry): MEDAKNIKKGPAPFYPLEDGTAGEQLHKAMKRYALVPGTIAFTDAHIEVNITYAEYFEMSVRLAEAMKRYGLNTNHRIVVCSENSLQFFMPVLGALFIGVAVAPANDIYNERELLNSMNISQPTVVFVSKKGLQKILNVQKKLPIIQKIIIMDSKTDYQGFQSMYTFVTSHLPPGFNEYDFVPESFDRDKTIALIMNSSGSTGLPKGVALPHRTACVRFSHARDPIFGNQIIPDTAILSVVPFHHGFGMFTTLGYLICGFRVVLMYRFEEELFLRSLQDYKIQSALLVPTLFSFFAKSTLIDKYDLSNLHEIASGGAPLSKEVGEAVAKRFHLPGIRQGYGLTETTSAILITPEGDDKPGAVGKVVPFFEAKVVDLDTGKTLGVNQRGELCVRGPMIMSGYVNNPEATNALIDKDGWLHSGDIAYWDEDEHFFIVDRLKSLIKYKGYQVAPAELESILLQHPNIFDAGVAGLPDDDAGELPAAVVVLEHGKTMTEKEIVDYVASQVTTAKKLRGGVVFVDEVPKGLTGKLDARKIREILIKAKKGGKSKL
experiment.description: firefly luciferase enzyme inhibitors, dose response, biochemical, luminescence (AID 1891)
Calls of active or inactive are those of the source.
Consider the following compounds and their measured EC50 readings.

Please review the following examples before continuing.
compound	obs.value
COCCCNC(=O)Cn1c(=O)n(CCCCCC(=O)Nc2ccccc2)c(=O)c2sccc21	> 112 µM (not active)
COc1ccc(C(=O)Nc2cccc(C)c2)cc1	16.1 µM (active)
CCN(CC)c1ccc(/C=N/NC(=O)c2ccoc2C)cc1	1.42 µM (active)

Now examine the next entry.
*Q* Record request: EC50 value, item CC1N(O)C(c2ccc(Cl)cc2Cl)N(O)C1(C)C (centres undefined)
*A* > 112 µM (not active)

====

target.system: Corticotropin-releasing factor receptor 2/Corticotropin-releasing factor-binding protein (Homo sapiens, UniProt P24387+Q13324)
Sequence (Q13324 whole entry): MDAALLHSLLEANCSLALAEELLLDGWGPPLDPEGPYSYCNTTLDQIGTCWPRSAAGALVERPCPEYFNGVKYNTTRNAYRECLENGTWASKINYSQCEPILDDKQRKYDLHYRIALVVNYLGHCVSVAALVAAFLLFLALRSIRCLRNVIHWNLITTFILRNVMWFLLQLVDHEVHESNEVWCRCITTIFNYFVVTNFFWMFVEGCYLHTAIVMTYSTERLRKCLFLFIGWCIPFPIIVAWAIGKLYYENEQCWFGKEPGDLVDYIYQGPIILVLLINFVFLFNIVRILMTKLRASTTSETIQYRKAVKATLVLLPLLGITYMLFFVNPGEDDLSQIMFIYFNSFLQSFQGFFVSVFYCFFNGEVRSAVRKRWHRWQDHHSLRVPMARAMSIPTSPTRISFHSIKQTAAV
Sequence (P24387 whole entry): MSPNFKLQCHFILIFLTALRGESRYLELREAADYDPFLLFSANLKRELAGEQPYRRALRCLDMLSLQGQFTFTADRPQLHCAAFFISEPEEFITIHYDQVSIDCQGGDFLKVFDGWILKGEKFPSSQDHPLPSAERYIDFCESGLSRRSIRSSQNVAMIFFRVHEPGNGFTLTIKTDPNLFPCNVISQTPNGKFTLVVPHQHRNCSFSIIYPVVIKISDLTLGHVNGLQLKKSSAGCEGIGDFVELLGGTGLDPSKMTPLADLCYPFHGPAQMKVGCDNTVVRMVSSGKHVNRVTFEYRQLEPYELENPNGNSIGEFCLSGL
experiment.description: activators of CRF receptor 2 with binding protein – uHTS hits, confirmation (AID 602473)
Type: functional
run.parameters: read-out: EC50_Mean
Active and inactive are the calls of the source.
Please reply with one of these outcomes: active, inactive

molecule	category.label
COc1ccc(C2=C/C(=C/c3cccnc3)C(=O)O2)cc1OC	active
CSc1cccc(NC(=O)C(C)C)c1	inactive
O=C(/C=C/c1ccco1)OCc1nnc(-c2ccc(Cl)cc2)o1	inactive

Turning now to a further molecule:
*Q* Hi team, can someone confirm the assay call for CCc1ccc(NC(=O)C(CC)c2ccccc2)cc1 (centres undefined) ?
*A* active
